- Study Target: T1, human serum albumin (human, UniProt P02768 25-609)
- T1 construct: immobilized on chips or coated on plates elsewhere; also called HSA; HuSA
- Assay Protocol: SPR, albumin immobilized;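 further: biacore SPR with human, rhesus or mouse serum albumin amine-coupled to the chip (about 1200 RU), 3 min association, 6-10 min dissociation, reference-subtracted traces fitted with a 1:1 model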
Parameter Measured: kon (M⁻¹ s⁻¹)
Give the value in M⁻¹ s⁻¹ but do not write M⁻¹ s⁻¹ after it.

Prompt line: Entry PCSK9-PKE2 tandem 4472_E06 (designed binder, The real molecule is ONE polypeptide: PCSK9 domain, undisclosed linker I (a code letter), PKE2 domain. It is given here as two chains because the linker letters are unknown., also called 4427_E06; not shown: The inter-domain linker) PCSK9 domain: MGVSDVPRDLEVVAATPTSLLISWDAPAEGYGYYRITYGETGGNSPVQEFTVPVSKGTATISGLKPGVDYTITVYAVEFDFPGAGYYHRPISINYRTE PKE2 domain: GVSDVPRDLEVVAATPTSLLISWDAPAVTVRYYRITYGREVQKYSDLGPLYIYQEFTVPGSKSTATISGLKPGVDYTITVYAVTGSGESPASSKPISINYRTEHHHHHH has what kon?
Response line: 5300
